- assay.procedure: Cell viability (cytotoxicity) assay
- Type: cell-based
- condition.details: human, MDA-MB-231 cells, 48 h treatment
Let's look at some compounds and their measured IC50 at 48 h.
measured.property: IC50 at 48 h

{"compound": "COc1ncc(-c2nc(C(=O)NC(=N)N)c(N)nc2N2CCCCCC2)cn1", "reported.result": "> 100 µM"}
{"compound": "N=C(N)NC(=O)c1nc(-c2cncnc2)c(N2CCOCC2)nc1N", "reported.result": "> 100 µM"}
{"compound": "N=C(N)NC(=O)c1nc(-c2cnc(NCCO)nc2)c(N2CCCCCC2)nc1N", "reported.result": "> 100 µM"}
{"compound": "N=C(N)NC(=O)c1nc(Cl)c(N)nc1N [AML, Amiloride, reference compound]", "reported.result": "> 100 µM"}
{"compound": "N=C(N)NC(=O)c1nc(-c2cc3ncccc3o2)c(N2CCCC2)nc1N", "reported.result": "> 100 µM"}
{"compound": "N=C(N)NC(=O)c1nc(-c2cc3ncccc3o2)c(N)nc1N", "reported.result": "> 100 µM"}
